# experimental_target: SYK (Homo sapiens, UniProt P43405)
# Construct: made in house; host or cells: Sf21 insect cells (baculovirus)
# assay_name: SYK tyrosine kinase assay
# Assay type: biochemical
# measurement_parameters: second experiment, FIG. 1C; 1 hour exposure

compound: COc1ccc(CC(=O)c2c(O)cc(O)cc2O)cc1
IC50: < 10 µM

----------
# experimental_target: BTK (Homo sapiens)
# Construct: made in house; host or cells: Sf21 insect cells (baculovirus)
# Sequence (Q06187 whole entry, species assumed): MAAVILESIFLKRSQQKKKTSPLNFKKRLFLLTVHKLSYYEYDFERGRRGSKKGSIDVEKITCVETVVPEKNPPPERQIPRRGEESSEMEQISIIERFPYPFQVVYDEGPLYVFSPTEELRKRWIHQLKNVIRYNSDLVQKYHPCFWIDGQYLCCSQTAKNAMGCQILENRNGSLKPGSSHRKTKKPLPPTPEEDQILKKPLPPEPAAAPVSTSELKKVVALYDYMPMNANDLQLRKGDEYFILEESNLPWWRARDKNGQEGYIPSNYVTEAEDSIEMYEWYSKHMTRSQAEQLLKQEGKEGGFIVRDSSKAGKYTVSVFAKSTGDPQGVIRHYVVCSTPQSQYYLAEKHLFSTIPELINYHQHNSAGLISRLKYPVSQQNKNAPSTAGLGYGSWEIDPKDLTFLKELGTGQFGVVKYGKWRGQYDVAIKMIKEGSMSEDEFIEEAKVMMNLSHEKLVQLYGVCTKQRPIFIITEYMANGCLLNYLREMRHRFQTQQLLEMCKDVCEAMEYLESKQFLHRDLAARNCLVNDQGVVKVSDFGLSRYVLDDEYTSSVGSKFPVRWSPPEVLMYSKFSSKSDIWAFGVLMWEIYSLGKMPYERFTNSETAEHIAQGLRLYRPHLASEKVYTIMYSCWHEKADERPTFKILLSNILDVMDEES
# assay_name: BTK tyrosine kinase assay
# Type: biochemical
# measurement_parameters: first experiment, FIG. 1A; 1 hour exposure
readout_kind: IC50 (µM)

molecule: COc1ccc(CC(=O)c2c(O)cc(O)cc2O)cc1 [Compound D-58]
experimental_target: BTK (Homo sapiens)
result_units: µM
value_reported: 18.6

----------
# experimental_target: Src family tyrosine kinase HCK (Homo sapiens)
# Sequence (P08631 whole entry): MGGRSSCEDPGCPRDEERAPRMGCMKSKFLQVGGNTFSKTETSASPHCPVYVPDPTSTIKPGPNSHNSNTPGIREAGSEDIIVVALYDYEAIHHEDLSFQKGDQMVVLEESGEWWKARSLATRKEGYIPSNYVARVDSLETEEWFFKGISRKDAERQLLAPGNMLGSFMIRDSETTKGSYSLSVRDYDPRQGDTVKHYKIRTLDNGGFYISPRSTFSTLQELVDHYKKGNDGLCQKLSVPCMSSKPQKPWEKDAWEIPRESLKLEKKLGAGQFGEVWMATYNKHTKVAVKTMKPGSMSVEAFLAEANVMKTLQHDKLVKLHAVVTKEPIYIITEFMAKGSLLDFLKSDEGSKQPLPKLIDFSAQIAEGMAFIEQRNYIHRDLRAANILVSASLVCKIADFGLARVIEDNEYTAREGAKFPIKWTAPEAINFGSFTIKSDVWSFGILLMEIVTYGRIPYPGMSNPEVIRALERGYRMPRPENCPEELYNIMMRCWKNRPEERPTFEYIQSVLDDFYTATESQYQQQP
pIC50: −log10 of the molar value.

molecule: COc1ccc(CC(=O)c2c(O)cc(O)cc2O)cc1 [Compound D-58]
pIC50: < 3.70

Each recorded value in this set is attributed to patent US6391921B1.
